# METHOD_NOTES: Human HepG2 cell viability assay in 384 well format
# Assay type: toxicity, cell-based
# Design: dose 125 nL, time 70.5 hour; concentration not given beside the values
# TEST_PARAMETERS: HepG2 cells, read-out: Inhibition
OUTCOME_MEASURE: cytotoxicity at 70.5 h (%)
Express your answer in %, writing the number without its unit.

>  <COMPOUND>
CC(NCCCN1CCCC1=O)c1cc(Br)ccc1O (stereo unspecified)

>  <cytotoxicity at 70.5 h (%)>
-5.37

$$$$
>  <COMPOUND>
O=C(Cn1ccc(=O)[nH]c1=O)NCc1cccnc1OCC(F)(F)F

>  <cytotoxicity at 70.5 h (%)>
-10.1

$$$$
>  <COMPOUND>
O=C(NC1CC1)[C@@H]1CCO[C@@H]2CCN(C3CCCC3)C[C@H]21

>  <cytotoxicity at 70.5 h (%)>
-0.698

$$$$
>  <COMPOUND>
O=C(C1CCOCC1)N1CC[C@@](O)(c2ccccc2)[C@H]2CCCC[C@@H]21

>  <cytotoxicity at 70.5 h (%)>
24.9

$$$$
>  <COMPOUND>
c1cncc(OCc2noc3c2CN(Cc2ccoc2)CC3)c1

>  <cytotoxicity at 70.5 h (%)>
-15.9

$$$$

Attention now turns to another entry.
## Task I am curious: what cytotoxicity at 70.5 h value has been reported for COc1cc(NCC(c2ccccn2)N2CCOCC2)ncn1 (stereo unspecified) ?
## Result -3.18

Reference source for all entries: ChEMBL document CHEMBL3507680
